target.system: Neurogenic locus notch homolog protein 2 (Homo sapiens) (UniProt Q04721)
Sequence (Q04721 whole entry, looked up): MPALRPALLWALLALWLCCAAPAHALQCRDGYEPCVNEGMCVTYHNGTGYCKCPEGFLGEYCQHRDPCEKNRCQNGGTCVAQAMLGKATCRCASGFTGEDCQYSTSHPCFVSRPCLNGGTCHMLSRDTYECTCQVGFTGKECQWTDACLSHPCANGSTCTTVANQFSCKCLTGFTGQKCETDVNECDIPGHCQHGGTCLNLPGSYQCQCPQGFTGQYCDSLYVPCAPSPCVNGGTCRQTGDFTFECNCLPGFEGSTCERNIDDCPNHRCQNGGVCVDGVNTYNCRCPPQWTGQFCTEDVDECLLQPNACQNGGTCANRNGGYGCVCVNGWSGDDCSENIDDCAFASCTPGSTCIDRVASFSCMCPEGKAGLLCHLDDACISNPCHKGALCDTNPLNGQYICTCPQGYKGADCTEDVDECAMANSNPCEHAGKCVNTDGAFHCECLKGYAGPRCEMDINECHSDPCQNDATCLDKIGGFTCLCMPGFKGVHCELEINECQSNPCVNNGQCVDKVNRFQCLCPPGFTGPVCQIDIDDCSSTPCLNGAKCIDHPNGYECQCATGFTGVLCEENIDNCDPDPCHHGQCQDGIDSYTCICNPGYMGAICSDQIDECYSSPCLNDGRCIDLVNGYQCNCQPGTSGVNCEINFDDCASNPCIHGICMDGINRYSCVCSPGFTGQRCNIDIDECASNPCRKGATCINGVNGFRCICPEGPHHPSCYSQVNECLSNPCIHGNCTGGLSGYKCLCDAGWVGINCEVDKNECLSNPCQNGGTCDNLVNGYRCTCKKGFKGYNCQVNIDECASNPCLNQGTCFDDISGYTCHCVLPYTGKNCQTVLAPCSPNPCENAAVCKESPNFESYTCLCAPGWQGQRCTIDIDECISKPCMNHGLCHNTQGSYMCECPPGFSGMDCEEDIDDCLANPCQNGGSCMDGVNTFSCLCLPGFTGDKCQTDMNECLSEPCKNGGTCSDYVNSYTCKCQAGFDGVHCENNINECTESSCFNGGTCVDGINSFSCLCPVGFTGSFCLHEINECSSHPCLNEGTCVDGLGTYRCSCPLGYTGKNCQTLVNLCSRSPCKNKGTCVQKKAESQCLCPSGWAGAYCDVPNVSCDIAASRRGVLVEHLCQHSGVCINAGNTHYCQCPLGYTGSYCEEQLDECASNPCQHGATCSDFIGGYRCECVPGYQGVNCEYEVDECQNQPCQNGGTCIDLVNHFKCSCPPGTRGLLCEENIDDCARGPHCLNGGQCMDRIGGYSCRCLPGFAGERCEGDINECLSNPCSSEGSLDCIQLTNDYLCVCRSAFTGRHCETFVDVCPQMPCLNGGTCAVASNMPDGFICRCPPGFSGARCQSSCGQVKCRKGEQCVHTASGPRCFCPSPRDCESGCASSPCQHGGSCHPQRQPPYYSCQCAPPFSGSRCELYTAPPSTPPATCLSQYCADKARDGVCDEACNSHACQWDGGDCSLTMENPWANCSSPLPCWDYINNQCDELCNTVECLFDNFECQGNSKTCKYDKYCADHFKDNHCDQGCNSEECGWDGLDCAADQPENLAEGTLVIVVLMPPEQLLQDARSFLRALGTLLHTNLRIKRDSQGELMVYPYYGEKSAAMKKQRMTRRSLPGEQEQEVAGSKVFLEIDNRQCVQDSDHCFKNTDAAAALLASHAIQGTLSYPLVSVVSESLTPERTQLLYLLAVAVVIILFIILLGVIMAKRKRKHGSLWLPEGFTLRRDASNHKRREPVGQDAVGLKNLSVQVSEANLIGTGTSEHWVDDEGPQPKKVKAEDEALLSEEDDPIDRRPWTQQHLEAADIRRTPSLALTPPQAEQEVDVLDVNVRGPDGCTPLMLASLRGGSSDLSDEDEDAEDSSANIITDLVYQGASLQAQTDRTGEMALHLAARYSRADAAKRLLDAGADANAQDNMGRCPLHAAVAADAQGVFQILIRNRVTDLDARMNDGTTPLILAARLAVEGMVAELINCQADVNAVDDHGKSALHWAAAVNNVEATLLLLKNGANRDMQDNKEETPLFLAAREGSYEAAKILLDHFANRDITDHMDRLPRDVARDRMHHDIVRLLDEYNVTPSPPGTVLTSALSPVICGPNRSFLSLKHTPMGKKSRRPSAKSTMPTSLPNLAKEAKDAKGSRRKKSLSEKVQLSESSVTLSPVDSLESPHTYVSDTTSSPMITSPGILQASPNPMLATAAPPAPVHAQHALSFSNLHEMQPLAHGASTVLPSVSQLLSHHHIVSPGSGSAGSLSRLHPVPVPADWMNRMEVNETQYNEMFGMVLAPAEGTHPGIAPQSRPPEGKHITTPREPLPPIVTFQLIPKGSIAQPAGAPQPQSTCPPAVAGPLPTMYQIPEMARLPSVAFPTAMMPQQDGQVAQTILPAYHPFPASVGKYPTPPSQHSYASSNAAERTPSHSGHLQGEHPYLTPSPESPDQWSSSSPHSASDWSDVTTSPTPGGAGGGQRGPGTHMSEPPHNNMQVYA
measurement.protocol: Notch2 binders on small-molecule microarrays, primary screen, biochemical, small-molecule microarray, 635 nm fluorescence, stem cell growth factors (AID 1073)
setup.conditions: Notch2 binding, higher = more signal
Listing of entries alongside the reported composite z-score.
Just the number, please, no unit attached.

# annotated cases, reported composite z-score shown
COC(=O)CC=C[C@@H](C)[C@@H](C=NOC[C@H]1O[C@H](c2ccccc2)C=C[C@@H]1Oc1ccc(OC)cc1)OC
-0.639
COC(=O)[C@H](C)NC(=O)CCC1CC(OC(=O)NCc2ccc3c(c2)OCO3)CC2(CCCC(COC(=O)NCC(c3ccccc3)c3ccccc3)O2)O1 (some centres undefined)
0.994
COc1ccc(COC(=O)NN=C2C[C@@H](O)[C@@H](O)[C@@H]3[C@@H]4C(=O)N(C5CCCCC5)C(=O)[C@@H]4CC[C@H]23)cc1
-0.961
CC1O[C@H]2C3=C(C(=O)[C@@H]4O[C@@H]4[C@H]3O)[C@@H]1C1[C@@H](C)OC=C3[C@H](O)C4O[C@@H]4C(=NOCc4ccccc4)[C@]312 (some centres undefined)
0.112
COC(=O)NCC=Cc1nc(CCCO)co1
0.623
CCOC(=O)[C@H](Cc1ccccc1)NC(=O)CCC1CC(OC(=O)NCCc2ccc(F)cc2)CC2(CCCC(COC(=O)NCC3CCCCC3)O2)O1 (some centres undefined)
1.42
CCOC(=O)CCN1C(=O)[C@H]2[C@H]3[C@H](O)[C@H](O)CC(=NNC(=O)OCc4ccccc4)[C@@H]3CC[C@H]2C1=O
0.88
O=C1C[C@@H](O)[C@@H](O)[C@@H]2[C@@H]3C(=O)N(Cc4ccc5c(c4)OCO5)C(=O)[C@@H]3CC[C@H]12
0.558

For the next question, use this compound.
Summary for this compound, CC(CCC(=O)OC[C@H]1O[C@H](C#Cc2ccccc2)C=C[C@@H]1Oc1ccc(C)cc1)=NO[C@H](C)c1cn([C@H](CO)Cc2ccccc2)nn1 : composite z-score is 0.369
